tested on: CD8+ T cells; assay: In vitro T-cell priming assay with aAPCs loaded with peptide/MHC complexes and anti-CD28 (immunogenicity, multimer staining); format: cell-based, human; settings: in vitro immunogenicity, HLA class I peptides; percentage of positive wells
measured-property: Wells positive [%]

* 29 (ILLDLEQAL; listed as Homo sapiens) [compound 29] | + (<20% = +)
* 95 (KLTDVGIATL; listed as Homo sapiens) [compound 95] | ++++ (>=70% = ++++)
* 98 (KIPPVSPSI; listed as Homo sapiens) [compound 98] | ++++ (>=70% = ++++)
* 15 (ILIKHLVKV; listed as Homo sapiens) [compound 15] | + (<20% = +)
* 16 (FMPEELPQL; listed as Homo sapiens) [compound 16] | + (<20% = +)
* 1 (ALIVSLPYL; listed as Homo sapiens) [compound 1] | + (<20% = +)
* 6 (VLFELSKTV; listed as Homo sapiens) [compound 6] | + (<20% = +)
* 3 (RLLGEVQAL; listed as Homo sapiens) [compound 3] | + (<20% = +)
* 7 (FLLSLIDRL; listed as Homo sapiens) [compound 7] | + (<20% = +)
* 2 (ILWREVVTL; listed as Homo sapiens) [compound 2] | + (<20% = +)
* 20 (AVANTTFTV; listed as Homo sapiens) [compound 20] | + (<20% = +)
* 9 (ILLQKPDSV; listed as Homo sapiens) [compound 9] | + (<20% = +)

* * *

target: HLA-A*02:01 (Homo sapiens, UniProt P04439, D140Y/D185E/D98H/E176V/E277Q/G131W/G231S/I119V/I121R/I166T/I218V/L300P/L318F/N151K/N90K/P208A/P217A/Q86G/Q94H/R138H/R169H/T345S); assay: MHC binding assay (UV-ligand exchange, beta2m ELISA); conditions: peptide exchange yield, HLA-A*02:01, UV-ligand exchange
measured-property: Peptide exchange (MHC class I binding score)

• 48 (VVASNIMEV; listed as Homo sapiens) [compound 48] = ++ (≥20% = ++)
• 36 (SLFGKKYIL; listed as Homo sapiens) [compound 36] = ++ (≥20% = ++)
• 111 (TLLETEMLL; listed as Homo sapiens) [compound 111] = ++ (≥20% = ++)
• 53 (FLLEIRQTL; listed as Homo sapiens) [compound 53] = ++ (≥20% = ++)
• 82 (SLLQATDFMSL; listed as Homo sapiens) [compound 82] = +++ (≥50 = +++)
• 90 (FTLEKNFVI; listed as Homo sapiens) [compound 90] = ++ (≥20% = ++)
• 24 (FTLGTTVFL; listed as Homo sapiens) [compound 24] = +++ (≥50 = +++)
• 20 (AVANTTFTV; listed as Homo sapiens) [compound 20] = ++ (≥20% = ++)
• 114 (ALAVNISAA; listed as Homo sapiens) [compound 114] = +++ (≥50 = +++)
• 52 (SILDAVQRV; listed as Homo sapiens) [compound 52] = ++ (≥20% = ++)
• 47 (TLAEVRAVQEI; listed as Homo sapiens) [compound 47] = +++ (≥50 = +++)
• 4 (FLSQDIITV; listed as Homo sapiens) [compound 4] = +++ (≥50 = +++)
• 2 (ILWREVVTL; listed as Homo sapiens) [compound 2] = +++ (≥50 = +++)
• 72 (YSLEKVFGI; listed as Homo sapiens) [compound 72] = ++ (≥20% = ++)
• 80 (KLASMLETL; listed as Homo sapiens) [compound 80] = +++ (≥50 = +++)
• 106 (VLMDLKALL; listed as Homo sapiens) [compound 106] = +++ (≥50 = +++)
• 37 (VLAPVILML; listed as Homo sapiens) [compound 37] = ++ (≥20% = ++)
• 15 (ILIKHLVKV; listed as Homo sapiens) [compound 15] = ++ (≥20% = ++)
• 65 (IIYGGSVTGA; listed as Homo sapiens) [compound 65] = ++ (≥20% = ++)
• 101 (HIYDKAFITV; listed as Homo sapiens) [compound 101] = ++ (≥20% = ++)
• 13 (KIMAQILTV; listed as Homo sapiens) [compound 13] = +++ (≥50 = +++)
• 33 (FIADVVEKI; listed as Homo sapiens) [compound 33] = ++ (≥20% = ++)
• 19 (LLDPGSLQL; listed as Homo sapiens) [compound 19] = ++ (≥20% = ++)

* * *

target: HLA-A*02:01 (Homo sapiens, UniProt P04439, D140Y/D185E/D98H/E176V/E277Q/G131W/G231S/I119V/I121R/I166T/I218V/L300P/L318F/N151K/N90K/P208A/P217A/Q86G/Q94H/R138H/R169H/T345S); experiment: MHC binding assay (UV-ligand exchange, beta2m ELISA); settings: peptide exchange yield, HLA-A*02:01, UV-ligand exchange
measured-property: Peptide exchange (MHC class I binding score)

- 45 (ALLGIPLTL; listed as Homo sapiens) [compound 45]: +++ (≥50 = +++)
- 7 (FLLSLIDRL; listed as Homo sapiens) [compound 7]: +++ (≥50 = +++)
- 75 (FLIKSINLV; listed as Homo sapiens) [compound 75]: +++ (≥50 = +++)
- 22 (FLSPPLPSV; listed as Homo sapiens) [compound 22]: +++ (≥50 = +++)
- 97 (TLISELVQA; listed as Homo sapiens) [compound 97]: ++ (≥20% = ++)
- 27 (SLSDLLVSL; listed as Homo sapiens) [compound 27]: +++ (≥50 = +++)
- 94 (ILHHKVYDL; listed as Homo sapiens) [compound 94]: ++ (≥20% = ++)
- 74 (GLFHKQVTV; listed as Homo sapiens) [compound 74]: +++ (≥50 = +++)
- 59 (SLKNNVVSV; listed as Homo sapiens) [compound 59]: +++ (≥50 = +++)
- 102 (LLFDVHTTL; listed as Homo sapiens) [compound 102]: +++ (≥50 = +++)
- 88 (TLAELHISL; listed as Homo sapiens) [compound 88]: ++ (≥20% = ++)
- 89 (SLLLAVTEV; listed as Homo sapiens) [compound 89]: ++ (≥20% = ++)
- 66 (TLLKTIIKV; listed as Homo sapiens) [compound 66]: ++ (≥20% = ++)
- 43 (YLKDELDEL; listed as Homo sapiens) [compound 43]: +++ (≥50 = +++)
- 110 (LLDLHSYLL; listed as Homo sapiens) [compound 110]: ++ (≥20% = ++)
- 21 (RLIQGDQILSV; listed as Homo sapiens) [compound 21]: ++ (≥20% = ++)
- 40 (YIQEHLLQI; listed as Homo sapiens) [compound 40]: +++ (≥50 = +++)
- 68 (YVLTQPPSV; listed as Homo sapiens) [compound 68]: ++ (≥20% = ++)
- 113 (SLFDWNVKL; listed as Homo sapiens) [compound 113]: +++ (≥50 = +++)
- 49 (VLIVEVPGV; listed as Homo sapiens) [compound 49]: +++ (≥50 = +++)
- 54 (ALVAKGLVQA; listed as Homo sapiens) [compound 54]: ++ (≥20% = ++)
- 60 (ILWKDIEYV; listed as Homo sapiens) [compound 60]: +++ (≥50 = +++)
- 56 (ILMDFSNSM; listed as Homo sapiens) [compound 56]: +++ (≥50 = +++)
- 79 (ALADIVWRA; listed as Homo sapiens) [compound 79]: +++ (≥50 = +++)
- 100 (KLNVAPLAV; listed as Homo sapiens) [compound 100]: ++ (≥20% = ++)
- 86 (GLLQGKLALL; listed as Homo sapiens) [compound 86]: ++ (≥20% = ++)
- 29 (ILLDLEQAL; listed as Homo sapiens) [compound 29]: +++ (≥50 = +++)
- 14 (ALLTETIFL; listed as Homo sapiens) [compound 14]: ++ (≥20% = ++)
- 69 (ILADLLPSL; listed as Homo sapiens) [compound 69]: ++ (≥20% = ++)
- 83 (IQWSIVPEV; listed as Homo sapiens) [compound 83]: +++ (≥50 = +++)
- 16 (FMPEELPQL; listed as Homo sapiens) [compound 16]: ++ (≥20% = ++)
- 92 (FLFRDILEL; listed as Homo sapiens) [compound 92]: +++ (≥50 = +++)
- 28 (FIADLVVGL; listed as Homo sapiens) [compound 28]: ++ (≥20% = ++)
- 1 (ALIVSLPYL; listed as Homo sapiens) [compound 1]: +++ (≥50 = +++)
- 112 (LLFDHLEPIEL; listed as Homo sapiens) [compound 112]: +++ (≥50 = +++)
- 99 (GLAPHLEQI; listed as Homo sapiens) [compound 99]: ++ (≥20% = ++)
- 25 (LLVPAHLVAA; listed as Homo sapiens) [compound 25]: ++ (≥20% = ++)
- 77 (SLIKHKIML; listed as Homo sapiens) [compound 77]: ++ (≥20% = ++)
